Data origin, for the record: patent US9725445B2

- assayed.system: JAK1 (Homo sapiens (Human), UniProt P23458)
- Sequence (P23458 875-1153): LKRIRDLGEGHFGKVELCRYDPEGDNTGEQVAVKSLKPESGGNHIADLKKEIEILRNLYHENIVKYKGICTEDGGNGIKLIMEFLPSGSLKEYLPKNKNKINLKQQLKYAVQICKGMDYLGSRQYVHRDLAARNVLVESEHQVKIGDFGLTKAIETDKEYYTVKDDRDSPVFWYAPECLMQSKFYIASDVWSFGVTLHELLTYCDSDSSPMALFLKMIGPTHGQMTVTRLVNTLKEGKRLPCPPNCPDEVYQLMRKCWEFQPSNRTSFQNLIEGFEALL
- test.protocol: Jak biochemical HTRF assay, JAK1
- condition.parameters: HTRF biochemical assay, recombinant GST-tagged catalytic domain; read-out: JAK1 IC50
IC50 overview
Express your answer as a number followed by its unit.

Sample answers from the record:
| molecule | IC50 |
| --- | --- |
| C[C@H](NCC(F)(F)F)c1ccc(Nc2nn([C@H]3CCCC[C@@H]3C#N)c3cc[nH]c(=O)c23)cc1 [Example 3-73] | 0.26 nM |
| N#C[C@H]1CCC[C@@H]1n1nc(Nc2ccc(C(N)C(F)(F)F)cc2)c2c(=O)[nH]ccc21 (single isomer, unassigned) [Example 3-136] | 0.28 nM |
| Cc1cn(Cc2cccc(Nc3nn([C@H]4CCCC[C@@H]4C#N)c4cc[nH]c(=O)c34)c2)nn1 [Example 3-37] | 0.18 nM |
| N#C[C@H]1CCC[C@@H]1n1nc(Nc2ccc(C(N)C(F)(F)F)cc2)c2c(=O)[nH]ccc21 (single isomer, unassigned) [Example 3-104] | 0.22 nM |
| CC(C)(C)OC(=O)C(C)(C)N1Cc2cc(Nc3nn([C@H]4CCCC[C@@H]4C#N)c4cc[nH]c(=O)c34)ccc2S1(=O)=O [Example 3-152] | 0.1 nM |

The observed IC50 for N#C[C@H]1C[C@@H](N2CC(O)C2)CC[C@@H]1n1nc(Nc2ccc(Cl)cc2)c2c(=O)[nH]ccc21 [Example 5-20] when tested with JAK1 (Homo sapiens (Human), UniProt P23458) stands at 0.14 nM

Form field IC50 for item N#C[C@H]1CCCC[C@@H]1n1nc(Nc2ccc3c(c2)CNC3)c2c(=O)[nH]ccc21 [Example 12-1] on JAK1 (Homo sapiens (Human), UniProt P23458): 0.31 nM

Observed IC50 on JAK1 (Homo sapiens (Human), UniProt P23458), entry N#C[C@H]1CCCC[C@@H]1n1nc(Nc2cccc(CN3CCOCC3)c2)c2c(=O)[nH]ccc21 [Example 3-33] , equals 1.3 nM

Value (IC50, JAK1 (Homo sapiens (Human), UniProt P23458)) for record Cc1cc(Nc2nn([C@H]3CCCC[C@@H]3C#N)c3cc[nH]c(=O)c23)ccc1C(C)(C)n1nccn1 [Example 15-32] = 0.26 nM

IC50 value, target or system JAK1 (Homo sapiens (Human), UniProt P23458), for CN(C)[C@H]1CC[C@H](n2nc(Nc3ccc(Cl)cc3)c3c(=O)[nH]ccc32)[C@@H](C#N)C1 [Example 5-16] : 0.34 nM

Field IC50 (JAK1 (Homo sapiens (Human), UniProt P23458)), entry N#C[C@H]1CCCC[C@@H]1n1nc(Nc2ccc3c(c2)CN(CC(F)(F)F)C3)c2c(=O)[nH]ccc21 [Example 3-61] : 0.55 nM

IC50 of CN(C(C)(C)C)S(=O)(=O)c1ccc(Nc2nn([C@@H]3CCCCC[C@H]3C#N)c3cc[nH]c(=O)c23)cc1 (single isomer, unassigned) [Example 15-51] , assay on JAK1 (Homo sapiens (Human), UniProt P23458), is 0.23 nM

Form: item CC(c1ccc(Nc2nn([C@H]3CCCC[C@@H]3C#N)c3cc[nH]c(=O)c23)cc1)n1nccn1 (single isomer, unassigned) [Example 15-21] ; test system JAK1 (Homo sapiens (Human), UniProt P23458); IC50: 0.39 nM

# lookup: COCCn1cc(-c2ccc(Nc3nn([C@H]4CCCC[C@@H]4C#N)c4cc[nH]c(=O)c34)cc2)cn1 [Example 3-145] on JAK1 (Homo sapiens (Human), UniProt P23458), IC50 = 0.12 nM

----------
Quick list: pIC50 per entry.
- assayed.system: JAK1 (Homo sapiens (Human))
- test.protocol: Jak biochemical HTRF assay, JAK1
- condition.parameters: HTRF biochemical assay, recombinant GST-tagged catalytic domain; read-out: JAK1 IC50
Would you please state pIC50, meaning minus log10 of the concentration in mol/L, as a bare number?

Below, 2 compounds whose answers are already recorded.
| compound | endpoint.result |
| --- | --- |
| Cc1cc(Nc2nn([C@H]3CCCC[C@@H]3C#N)c3cc[nH]c(=O)c23)ccc1C(C(C)C)n1ccnn1 (single isomer, unassigned) [Example 15-38] | 10.22 |
| CC1(C)Cc2cc(Nc3nn([C@H]4CCCC[C@@H]4C#N)c4cc[nH]c(=O)c34)ccc2S1(=O)=O [Example 21-1] | 10.25 |

So, N#C[C@H]1CCCC[C@@H]1n1nc(Nc2ccc([C@]3(O)CC[C@H](C(=O)O)CC3)cc2)c2c(=O)[nH]ccc21 [Example 17-2] ? Its pIC50 was 9.28

----------
- assayed.system: JAK1 (Homo sapiens (Human))
- test.protocol: Jak biochemical HTRF assay, JAK1
- condition.parameters: HTRF biochemical assay, recombinant GST-tagged catalytic domain; read-out: JAK1 IC50
Readings of pIC50 for the listed compounds
In textbook form, pIC50 equals minus log to base ten of the concentration in mol/L.

Worked set:
| compound | pIC50 |
| --- | --- |
| N#C[C@H]1CCCC[C@@H]1n1nc(Nc2ccc(C3CCNCC3)cc2)c2c(=O)[nH]ccc21 | 9.32 |
| N#C[C@H]1CCCC[C@@H]1n1nc(Nc2ccc(C(=O)N3CCCC3)cc2)c2c(=O)[nH]ccc21 | 8.85 |
| CN(C)[C@H]1CC[C@H](n2nc(Nc3ccc(Cl)c(F)c3)c3c(=O)[nH]ccc32)[C@@H](C#N)C1 | 9.22 |
| N#C[C@H]1C[C@@H](N2CCC2)CC[C@@H]1n1nc(Nc2ccc(Cl)c(F)c2)c2c(=O)[nH]ccc21 | 8.77 |
| Cn1cc(-c2ccc(Nc3nn([C@H]4CCCC[C@@H]4C#N)c4cc[nH]c(=O)c34)cc2Cl)cn1 | 9.54 |
| CCNC(c1ccc(Nc2nn([C@H]3CCC[C@@H]3C#N)c3cc[nH]c(=O)c23)cc1)C(F)(F)F (single isomer, unassigned) [Example 3-114] | 9.72 |

Kindly consider the entry below.
Documented pIC50 of CN(C(C)(C)C)S(=O)(=O)c1ccc(Nc2nn([C@H]3CCCC[C@@H]3C#N)c3cc[nH]c(=O)c23)cc1 : 9.54

----------
Listing: pIC50 of selected molecules
- assayed.system: UniProt:P23458
- test.protocol: Jak biochemical HTRF assay, JAK1
- condition.parameters: HTRF biochemical assay, recombinant GST-tagged catalytic domain; read-out: JAK1 IC50
pIC50 field: float, defined as -log10 of concentration (mol/L).

Here is how some molecules turned out for pIC50.
| molecule | pIC50 |
| --- | --- |
| N#C[C@H]1CCCC[C@@H]1n1nc(Nc2ccc(S(=O)(=O)NCc3ccccc3)cc2)c2c(=O)[nH]ccc21 | 9.68 |
| COCC(C)(C)CN1Cc2cc(Nc3nn([C@H]4CCCCC[C@@H]4C#N)c4cc[nH]c(=O)c34)ccc2S1(=O)=O (single isomer, unassigned) | 8.29 |
| N#C[C@H]1CCCC[C@@H]1n1nc(Nc2ccc(Cn3ccnn3)cc2)c2c(=O)[nH]ccc21 | 10.02 |
| CC(c1ccc(Nc2nn([C@H]3CCCC[C@@H]3C#N)c3cc[nH]c(=O)c23)cc1)n1ccnn1 (single isomer, unassigned) [Example 15-41] | 9.68 |
| CS(=O)(=O)c1ccc(Nc2nn([C@H]3CCC[C@@H]3C#N)c3cc[nH]c(=O)c23)cc1 | 9.92 |

Below: the item to evaluate.
# molecule C[C@@H](NCC(F)(F)F)c1ccc(Nc2nn([C@H]3CCCC[C@@H]3C#N)c3cc[nH]c(=O)c23)cc1 ; its pIC50 = 9.70

----------
Measured pIC50, listed per entry for reference.
- assayed.system: JAK1 (Homo sapiens (Human))
- test.protocol: Jak biochemical HTRF assay, JAK1
- condition.parameters: HTRF biochemical assay, recombinant GST-tagged catalytic domain; read-out: JAK1 IC50
Scale: negative log10 of molar concentration, which is what pIC50 denotes.

Reported pIC50 for Cc1cc(Nc2nn([C@@H]3CCCCC[C@H]3C#N)c3cc[nH]c(=O)c23)ccc1C(O)C(F)(F)F (single isomer, unassigned) [Example 15-68] was 9.59

For N#C[C@H]1CCC[C@@H]1n1nc(Nc2ccc3c(c2)CN(CC(F)(F)F)C3=O)c2c(=O)[nH]ccc21 the compound record lists pIC50 as 10.09

// field: pIC50; key: CC(O)(CO)c1cccc(Nc2nn([C@H]3CCCC[C@@H]3C#N)c3cc[nH]c(=O)c23)c1 (some centres unmarked) ; value = 8.60

Notebook: N#C[C@H]1CCCC[C@@H]1n1nc(Nc2ccc([C@@H](N)C(F)(F)F)cc2)c2c(=O)[nH]ccc21 , pIC50 read as 9.92

Entry N#C[C@@H]1C[C@H](N2CCC2)CC[C@H]1n1nc(Nc2ccc(C(F)(F)F)cc2)c2c(=O)[nH]ccc21 ; pIC50 = 7.43

pIC50 reported for this compound CC(O)c1cccc(Nc2nn([C@H]3CCCC[C@@H]3C#N)c3cc[nH]c(=O)c23)c1 (some centres unmarked) : 9.34
